- assay_notes: yeast display, Sf9 membrane polyspecificity reagent, FACS + sequencing; frameworks hold sequencing errors
recorded_endpoint: polyreactivity (PSR sort gate)

Past entries and their recorded results:
residue_sequence: QVQRVESGGRLVQAGGSLRLSCAASGRTFWAYAMGWYRQAPGKERELVAAITTSGGSTNYADSVKGRFTISRDNAKNTVYLQMNSLKPEDTAVDYCNADPTYHVVNGVGYWGQGTQVTVSS
result: low polyreactivity
--
residue_sequence: QVQLVESGGGLVQAGGSLRLSCAASGRTFTTYTMGWYRQAPGKERELVASINYRGGRTYYADSVKGRFTISRDNAKNTVYLQMNSLKPEDTAVYYCAKRRYYRRRQYYHYDYWGQGTQVTVSS
result: high polyreactivity
--
residue_sequence: QVQLVESGGGLVQAGGSLRLSCAASGSIFYNNVMGWYRQAPGKERELVAVISGGGSTNYADSVKGRFTISRDNAKNNVYLHMNSLKREDTAVYYCAARGRYSYGDRYEYWGQATQVTVSS
result: low polyreactivity
--
residue_sequence: QVQLLESRGGLVQAGGSLRLSCAASGRNFGRYTMGWYRQAPGKERELVAAISARGGSTYYADSVKGRFTISRDNAKNTVYLQMNSLKPEDTAVYYCNTVRVHGFPIDRIYDYWGQGTQVTVSS
result: high polyreactivity

Request: What measured polyreactivity (PSR sort gate) goes with "QVQLVESGGGLVQAGGSLRLTCAASASTFKPYAMGWDRQAPGKERELVAAINGSGGDTYYADSVKGRFTISRDNAKTTVYLQMNSLKPEDTAVYYCAAQWGYYNYWYGYWGQGSQVTVSS" ?
Result: low polyreactivity

###

- assay_notes: yeast display, Sf9 membrane polyspecificity reagent, FACS + sequencing; frameworks hold sequencing errors
recorded_endpoint: polyreactivity (PSR sort gate)

Some entries whose results are on file:
residue_sequence: QVQLVESGGGLVQSGGSLRLSCAASGFIFLNYAMGWYRQAPGKERQLVAAITSGGNTTYADSVKGRFTISRDNAKNTVYLQMNSLKPEDTAVYYCAAEWASRYAVFWAYPKYDYWGQGTQVTVAS
recorded_endpoint: polyreactivity (PSR sort gate)
result: low polyreactivity

residue_sequence: QVQLVESGGGLVQEGGSLRLNCAASGSTFWGNAMGWYRQPPGKDRELVAAISTSDTSTYYADSVKGRFTISRDNAKNTVYLQMNSLKPEDTAVYFCAAEWYYGEKYDYWGQGTQVTVSS
recorded_endpoint: polyreactivity (PSR sort gate)
result: low polyreactivity

residue_sequence: QVQLVESGGGLVQAGGSLRLSCAASGSIFGPYAMGWYRQAPWKERELVATSTYYADSVKGRFTISRDNAKNTVYLQMNSLKPEDTAVYYCAKTPYYSGYGWGYDYWGQGTQVTVSS
recorded_endpoint: polyreactivity (PSR sort gate)
result: low polyreactivity

residue_sequence: QVQLVESGGGLVQAGGSLRLSCAASGSIFGSYVMVWYRQAPGKERELVAAISKSGGRTYYADSVKGRFTISRDNAKNTVYLQMKSLKPEDTAVYYCAVLPRVKDGTGGDYWGQGTQVTVSS
recorded_endpoint: polyreactivity (PSR sort gate)
result: high polyreactivity

residue_sequence: QVQLVESGGGLVQAGGSLRLSCAASGRTIRYYTMGWYRQAPGKERELVATIRRGRTTYYADSVKGRFTISRDNEKNTVYLQMYSLKPEDTAVYYCAADFPSAEVDYWGQGTQVTVSS
recorded_endpoint: polyreactivity (PSR sort gate)
result: low polyreactivity

Request: # lookup: polyreactivity (PSR sort gate) of "QVQLVESGGGLVQAGGSLRLSCAASGRIFRWYAMGWYRQAPGKERELVASITWNGGSTYYADSVKGRFTISRDNAKNTVYLQMNSLKPEDTAVYYCAVAFYRGPEMGYWGQGTQVTVSS"
Result: high polyreactivity

Request: State the recorded polyreactivity (PSR sort gate) for this entry: "QVQLVESGGGLVQAGGSLRLSCAGSGFTLGSNAMGWYRQAPGKERELVAVISGSGGSTYYADSVKGRFTISRDNAKNTVYLQMNSLKPEDTAVYYCAAQYSAGQYYGYGYWGQGTQVTVSS"
Result: high polyreactivity

Request: Record request: polyreactivity (PSR sort gate) value, item "QVQLVESGGGLVQAGGSLRLSCAASGRTFTAYTMGWYRQAPGKERELVASITWSGGSTYYADSVKGRFTISRDNAKNTVYLQMNSLKPEDTAVYYCATAFDYGQFQLSSEFNYWGQGTQVTVSS"
Result: low polyreactivity

Request: Fill in the blank: the reported polyreactivity (PSR sort gate) of "QVQLVESGGGLVQAGGSLRLSCAASGRTIDYNGMGSYRQAPGKERELVAVISSSGGSTFYADSVKGRFTISRDNAKNTVYLQMNSLKPVDTAVYYCAADFIVAYTLHGSYDYWGQGTQVTVSS" is ____.
Result: low polyreactivity

Request: Param item = "QVQIVDSGGGVVQAGGILRLSSAASGYTFGSYDMGWYRQEPGKERELVAAISGGGSTNYADSVKGRFTISRDNAKNTVYLQMNCLKPEDTAVYYCAAYPYLYPLRFEEYDHWGQGTQVTVSS" ; retrieve measured polyreactivity (PSR sort gate).
Result: low polyreactivity
